Molecular target: T1, TNFR1 (Homo sapiens, UniProt P19438)
T1 chain: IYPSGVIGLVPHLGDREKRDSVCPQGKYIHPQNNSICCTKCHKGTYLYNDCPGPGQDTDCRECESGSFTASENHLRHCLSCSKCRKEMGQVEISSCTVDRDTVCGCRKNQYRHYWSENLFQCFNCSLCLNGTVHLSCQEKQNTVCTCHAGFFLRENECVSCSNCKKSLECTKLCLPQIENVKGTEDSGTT
Experiment: yeast display SC50
Experimental Readout: apparent Kd (screen) (nM)

The following binders have reported results that may help.
>  <Binder>
S59D (designed binder) SMEEEVEKAAKEYEKKKKEAIEKHLEKLKAKDKEAAERFLKELEEAAKEYAKDEAKTMDEEEAKRRAKKYKEKVLLSELSEEEQKEIKEAEEKLVRTILKYVEEAAK

>  <Experimental Readout>
apparent Kd (screen)

>  <Unit Tag>
nM

>  <Reported Result>
2.25

$$$$
>  <Binder>
E82A (designed binder) SMEEEVEKAAKEYEKKKKEAIEKHLEKLKAKDKEAAERFLKELEEAAKEYAKDEAKTMSEEEAKRRAKKYKEKVLLSELSEAEQKEIKEAEEKLVRTILKYVEEAAK

>  <Experimental Readout>
apparent Kd (screen)

>  <Unit Tag>
nM

>  <Reported Result>
0.593

$$$$
>  <Binder>
I87E (designed binder) SMEEEVEKAAKEYEKKKKEAIEKHLEKLKAKDKEAAERFLKELEEAAKEYAKDEAKTMSEEEAKRRAKKYKEKVLLSELSEEEQKEEKEAEEKLVRTILKYVEEAAK

>  <Experimental Readout>
apparent Kd (screen)

>  <Unit Tag>
nM

>  <Reported Result>
9.41

$$$$
>  <Binder>
A105L (designed binder) SMEEEVEKAAKEYEKKKKEAIEKHLEKLKAKDKEAAERFLKELEEAAKEYAKDEAKTMSEEEAKRRAKKYKEKVLLSELSEEEQKEIKEAEEKLVRTILKYVEELAK

>  <Experimental Readout>
apparent Kd (screen)

>  <Unit Tag>
nM

>  <Reported Result>
1.86

$$$$

[A] V95W (designed binder) SMEEEVEKAAKEYEKKKKEAIEKHLEKLKAKDKEAAERFLKELEEAAKEYAKDEAKTMSEEEAKRRAKKYKEKVLLSELSEEEQKEIKEAEEKLWRTILKYVEEAAK
[B] K41S (designed binder) SMEEEVEKAAKEYEKKKKEAIEKHLEKLKAKDKEAAERFLSELEEAAKEYAKDEAKTMSEEEAKRRAKKYKEKVLLSELSEEEQKEIKEAEEKLVRTILKYVEEAAK
[C] A47E (designed binder) SMEEEVEKAAKEYEKKKKEAIEKHLEKLKAKDKEAAERFLKELEEAEKEYAKDEAKTMSEEEAKRRAKKYKEKVLLSELSEEEQKEIKEAEEKLVRTILKYVEEAAK
[D] K73I (designed binder) SMEEEVEKAAKEYEKKKKEAIEKHLEKLKAKDKEAAERFLKELEEAAKEYAKDEAKTMSEEEAKRRAKKYKEIVLLSELSEEEQKEIKEAEEKLVRTILKYVEEAAK
Request: Arrange items by their apparent Kd (screen) values in increasing order. Form entry: ranked labels (order as requested).
Response: C, B, D, A
(C: 0.0802 nM, B: 0.869 nM, D: 2.73 nM, A: 13.8 nM)
